- experiment_summary: A549 cell viability effects, profiling panel, calcein-AM fluorescence, 48 h, basal (AID 1162); also: test concentration not given here
- measurement_parameters: higher = more signal
Please enter Met where z-score is greater than or equal to -0.6, and Not met where it is lower.

Solved cases below.
molecule	assigned_class
COc1ccc([Si](C)(C)[C@@H]2[C@@H](CCO)O[C@]3(C(=O)N(Cc4ccc(N5C(=O)COc6ccccc65)cc4)c4ccccc43)[C@H]2C)cc1	Not met
COc1ccc([C@H]2OC[C@@H]3CC4(CC=CC4)C(=O)N32)cc1	Met
CCCCC(O)C1C=CC2C(=O)N(c3ccccc3)C(=O)C2N1Nc1ccccc1F (stereo not given)	Met
COC(=O)[C@@]1(Cc2ccc(F)cc2)[C@H]2c3cc(C(=O)N4CCCC4)n(Cc4cc(C)n(C)n4)c3C[C@H]2CN1C(=O)c1ccccc1	Met
CN1C(=O)[C@]2(Cc3ccccc3)N=C(c3ccc(OCCCO)cc3)O[C@@H]2c2ccccc21	Not met
CCOC(=O)C[C@H]1[C@H](OC(=O)Cc2ccc3c(c2)OCO3)[C@@H](NC(=O)c2ccc3ccccc3c2)c2cc(OCCCO)ccc2N1C(=O)c1ccccc1	Met

QUERY: # check: z-score of "Cc1ccc(S[C@]2(C(=O)NCC(F)(F)F)CC(=O)N(C(C)C)[C@@H]2c2ccc(CO)cc2I)cc1" is greater than or equal to -0.6
RESULT: Met

QUERY: // query: "COC(=O)[C@@]1(Cc2ccc(OC)cc2)[C@H]2c3cc(C(=O)N4CCCC4)n(Cc4ccc(OC)c(OC)c4)c3C[C@H]2CN1C(=O)c1ccccc1"
RESULT: Met

QUERY: // query: CN1C(=O)C2C=CC(C(O)C3CCCCC3)N(Nc3ccc([N+](=O)[O-])cc3[N+](=O)[O-])C2C1=O (stereo not given)
RESULT: Not met

QUERY: // query: "CCCC=C(CCC)[C@@H](NS(=O)(=O)c1cccs1)c1ccc(C(=O)OC)cc1"
RESULT: Not met

QUERY: // query: "COC(=O)[C@@]1(Cc2ccc(F)cc2)[C@H]2c3cc(C(=O)N4CCCC4)n(Cc4ccc(C)o4)c3C[C@H]2CN1C(=O)c1ccccc1"
RESULT: Not met

QUERY: // query: C=CCC(OC(C)=O)[C@@H]1[C@@H](N(Cc2ccc(-c3cccc(C(F)(F)F)c3)o2)C(=O)c2ccc(-c3ccccc3)cc2)c2cc(OCCCO)ccc2N1C(=O)c1ccc(-c2ccccc2)cc1 (stereo not given in full)
RESULT: Met

QUERY: // query: "CN(C)C(=O)[C@@]1(Cc2ccccc2CN=[N+]=[N-])N=C(c2ccc(OCCCO)cc2)O[C@H]1c1ccccc1"
RESULT: Not met

QUERY: // query: "C=C(COC)/C(=C/C[C@@H](OC(C)=O)c1ccc(CO)o1)c1cnc2ccccc2c1"
RESULT: Met

QUERY: // query: O=C1C2C=CC(C(O)c3ccc(F)cc3)N(Nc3ccccc3F)C2C(=O)N1c1ccccc1 (stereo not given)
RESULT: Not met

---

- study_target: Torsin-1A-interacting protein 1 (Homo sapiens) (UniProt Q5JTV8)
- Sequence (Q5JTV8 whole entry, looked up): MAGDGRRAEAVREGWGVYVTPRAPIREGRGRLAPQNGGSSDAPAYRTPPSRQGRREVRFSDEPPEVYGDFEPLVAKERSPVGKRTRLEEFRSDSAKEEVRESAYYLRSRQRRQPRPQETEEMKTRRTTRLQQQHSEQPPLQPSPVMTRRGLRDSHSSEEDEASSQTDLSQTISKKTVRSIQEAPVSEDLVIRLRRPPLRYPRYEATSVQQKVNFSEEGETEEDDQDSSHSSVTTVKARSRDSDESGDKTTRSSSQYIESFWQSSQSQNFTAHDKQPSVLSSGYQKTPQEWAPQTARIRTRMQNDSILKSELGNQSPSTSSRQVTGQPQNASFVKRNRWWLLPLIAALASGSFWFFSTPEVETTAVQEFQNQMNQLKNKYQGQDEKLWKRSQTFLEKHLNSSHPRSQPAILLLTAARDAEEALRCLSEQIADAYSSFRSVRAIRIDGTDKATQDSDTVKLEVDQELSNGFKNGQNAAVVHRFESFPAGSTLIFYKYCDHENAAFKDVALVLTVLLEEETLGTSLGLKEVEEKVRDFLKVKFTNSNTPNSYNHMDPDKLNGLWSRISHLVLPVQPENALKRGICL
- experiment_summary: LAP1 binders from COS7 cell lysate, primary screen, small-molecule microarray, 635/667 nm fluorescence (AID 1116)
- measurement_parameters: COS7-hLAP1 lysate binding, 635 nm fluorescence, higher = more signal
parameter_measured: composite z-score
Please reply with the number alone, leaving off any unit.

QUERY: Look at this molecule and give its reported composite z-score. "O=C(O)[C@@]1(CCS(=O)(=O)c2ccccc2)COC(c2ccc(OCCCO)cc2)=N1"
RESULT: 2.98

QUERY: // query: "Cc1ccc(S[C@]2(C(=O)NC3CC3)CC(=O)N(C3Cc4ccccc4C3)[C@@H]2c2ccc(CO)cc2)cc1"
RESULT: 0.439
